All figures here come from patent US9980943B2.

This section presents molecules with their documented EC50 values.
# System: α7 integrin (LacZ reporter in α7LacZ+/− myoblasts)
# PROTOCOL DETAILS: qHTS of the LOPAC library and MLSMR (online screen, α7LacZ+/− myoblasts)
# SETUP CONDITIONS: Mus musculus, Myoblast, read-out: Fit LogAC50 (converted)

MOLECULE: N#Cc1ccc(OCC(O)CS(=O)(=O)c2ccccc2)cc1 (centres unmarked)
SUBJECT OF TEST: α7 integrin (LacZ reporter in α7LacZ+/− myoblasts)
EC50 [µM]: 10
--
MOLECULE: O=C(Nc1ccccc1F)c1ccc([N+](=O)[O-])s1
SUBJECT OF TEST: α7 integrin (LacZ reporter in α7LacZ+/− myoblasts)
EC50 [µM]: 12.6
--
MOLECULE: Fc1ccc(-c2ccnn2-c2ccccc2)cc1
SUBJECT OF TEST: α7 integrin (LacZ reporter in α7LacZ+/− myoblasts)
EC50 [µM]: 4.47
--
MOLECULE: COc1cc(/C=C2/C(=N)N3C(SC)=NSC3=NC2=O)ccc1OC(=O)c1ccco1
SUBJECT OF TEST: α7 integrin (LacZ reporter in α7LacZ+/− myoblasts)
EC50 [µM]: 3.98
--
MOLECULE: CC1CCN(S(=O)(=O)c2ccc(S(=O)(=O)N3CCCC3)cc2)CC1
SUBJECT OF TEST: α7 integrin (LacZ reporter in α7LacZ+/− myoblasts)
EC50 [µM]: 8.91

----------
# Test system: β-galactosidase in CMV-LacZ C2C12 myotubes
# PROTOCOL DETAILS: CMV-LacZ secondary screen in C2C12 myotubes (β-Gal stabilizing assay)
# Assay type: cell-based, mouse
# SETUP CONDITIONS: 20 uM; C2C12 CMV-LacZ myotubes; fold relative to DMSO
# Excerpt: In order to determine compounds that acted to stabilize β-gal in myogenic cells, a CMV-LacZ C2C12 cell line was used in a secondary screen. The EGFP gene from the pEGFP (Clontech) vector was replaced by LACZ PCR product with digests of the vector/PCR product performed using EcoRI (NEB) and NotI (NEB) and ligated using T4 DNA Ligase (NEB) following standard procedures to produce the CMV-LACZ vector. […]
Note to self: use T only for CMV-LACZ in Myotubes, signal relative to DMSO readings below 1; a reading exactly at 1 still gets F.

COMPOUND: O=C1Nc2ccccc2/C1=C/c1ccccc1F [MLS001202389-01]
CLASS NAME: F
//
COMPOUND: O=C(NCCc1ccc(Cl)cc1)C1CCCO1 (centres unmarked) [MLS001198271-01]
CLASS NAME: F
//
COMPOUND: Cc1cccc(NC(=O)c2ccc(N3C(=O)C4CCCCC4C3=O)cc2)c1C (centres unmarked) [MLS001147727-01]
CLASS NAME: F
//
COMPOUND: NC(=O)c1cccnc1Oc1ccc(Cl)cc1Cl [MLS000861434-01]
CLASS NAME: T
//
COMPOUND: O=C(NCCc1ccccc1)C1CCC(=O)N1C1CCCC1 (centres unmarked) [MLS001200665-01]
CLASS NAME: F
//
COMPOUND: COc1ccc(OC)c(NC(=O)CN2CCC(NC(=O)c3ccccc3C)CC2)c1 [MLS001212882-01]
CLASS NAME: F
//
COMPOUND: Cc1ccccc1C(=O)Nc1scc(-c2ccc(Br)cc2)c1C(=O)O [MLS001179267-01]
CLASS NAME: T
//
COMPOUND: COC(=O)c1ccc(C2C(C(=O)c3cc4ccccc4o3)=C(O)C(=O)N2CCN2CCOCC2)cc1 (centres unmarked) [MLS001146463-01]
CLASS NAME: F
//
COMPOUND: CC(=O)Nc1ccc(NC(=O)C/C(C)=N/NC(=O)COc2cc(C)c(Br)cc2Br)cc1 [MLS000912562-01]
CLASS NAME: F
//
COMPOUND: O=C(CCc1ccccc1)c1nnc(-c2ccccc2)o1 [MLS001004364-01]
CLASS NAME: F
//
COMPOUND: O=C(Nc1ccccc1OC(=O)c1ccc(Cl)cc1)c1ccc(Cl)cc1 [MLS000573208-01]
CLASS NAME: T
//
COMPOUND: CCc1nc2ccccc2c(C(=O)NCc2ccccc2)c1C [MLS000688267-01]
CLASS NAME: T
//
COMPOUND: c1ccc(-c2cnc(-c3ccccc3)nc2)cc1 [MLS000532078-01]
CLASS NAME: T
//
COMPOUND: O=C(Nc1ccccc1Cl)C1CCCN1C(=O)OCc1ccccc1 (centres unmarked) [MLS001030621-01]
CLASS NAME: T
//
COMPOUND: Cn1cc(CN2CCC(C(=O)Nc3cccc(-c4cscn4)c3)CC2)cn1 [MLS001105912-01]
CLASS NAME: F
//
COMPOUND: Cc1ccc(NC(=O)NCc2nc3ccccc3n2C)cc1 [MLS001175592-01]
CLASS NAME: T
//
COMPOUND: Cc1cccc2c(N=Nc3ccc(S(=O)(=O)Nc4ccc(Cl)cc4)cc3[N+](=O)[O-])c(O)[nH]c12 [MLS000393762-01]
CLASS NAME: F
//
COMPOUND: Nc1ncnc(NCc2ccccc2)c1[N+](=O)[O-] [MLS000698826-01]
CLASS NAME: F
//
COMPOUND: CCOC(=O)c1cc(C(=O)OCC)c(=O)[nH]c1SCc1ccccc1 [MLS001008109-01]
CLASS NAME: F
//
COMPOUND: Cc1ccc(N2C(=O)C3NN=C(C(=O)OCc4ccccc4)C3C2=O)cc1 (centres unmarked) [MLS000588210-01]
CLASS NAME: F
//
COMPOUND: NC(=O)c1sc2nc3c(cc2c1N)CCC3 [MLS000707378-01]
CLASS NAME: T
//
COMPOUND: Cc1cccc(Cn2cnc3c(nnn3Cc3ccc(Cl)cc3)c2=O)c1 [MLS000092785-01]
CLASS NAME: F
//
COMPOUND: COc1ccc(OC)c(S(=O)(=O)Nc2c(NC3CCCCC3)c3ccccc3oc2=O)c1 [MLS001095705-01]
CLASS NAME: F
//
COMPOUND: CCCN(C(=O)c1ccc(S(=O)(=O)N2CCCC2)cc1)C1CCS(=O)(=O)C1 (centres unmarked) [MLS002161853-01]
CLASS NAME: F
//
COMPOUND: CCCS(=O)(=O)c1nc(S(=O)(=O)c2ccc(C)cc2)c(N2CCCC2)s1 [MLS000113985-01]
CLASS NAME: F
//
COMPOUND: Cc1cc(C)cc(-n2nnc(C(=O)NCc3ccccc3Cl)c2N)c1 [MLS000094770-01]
CLASS NAME: T
//
COMPOUND: CCCCN(CCCC)CCNC(=O)c1cn(C)c2ccc(S(=O)(=O)N(C)C3CCCCC3)cc2c1=O [MLS000913117-01]
CLASS NAME: T
//
COMPOUND: COc1ccc(NC(=O)C2(N(C(=O)Cn3nnnc3N)c3ccc(OC)cc3)CCCCC2)cc1 [MLS001030268-01]
CLASS NAME: T
//
COMPOUND: Cn1c(O)c(C(C#N)=C2N=c3ccccc3=N2)c2ccccc21 [MLS000536064-01]
CLASS NAME: F
//
COMPOUND: O=C(O)c1cc(N=Cc2c(O)c3ccccc3oc2=O)ccc1O [MLS001216260-01]
CLASS NAME: F
